This collection of values is drawn from patent US12624112.

This section presents binders with their documented EC50 values.
- experimental.system: T1, Cyno ST2-fc (cyno; human, UniProt A0A2K5UDB8 19-331)
- T1 construct: also called cyno ST2 fused with a human IgG1 Fc tag at the C-terminus
- T1 sequence: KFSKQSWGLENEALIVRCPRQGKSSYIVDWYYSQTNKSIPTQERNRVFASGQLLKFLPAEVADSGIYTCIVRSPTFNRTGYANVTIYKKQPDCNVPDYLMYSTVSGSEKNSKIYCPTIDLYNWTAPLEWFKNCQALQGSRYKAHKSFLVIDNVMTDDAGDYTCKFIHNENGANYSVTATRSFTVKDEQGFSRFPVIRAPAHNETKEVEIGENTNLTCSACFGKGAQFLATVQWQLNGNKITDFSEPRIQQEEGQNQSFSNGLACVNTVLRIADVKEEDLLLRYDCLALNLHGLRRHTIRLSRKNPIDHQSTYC
- test.method.notes: ELISA, coated cyno ST2-fc
Answer as a quantity: numeral, then unit.

binder	experimental.readout	reported.measurement
5887-537H3+L1 (antibody, V domains shown, murine antibody; also called 5887-537H3H+L1) VH: QVTLKESGPGILQPSQTLSLTCSFSGFSLSTSGMGVGWIRQPSGKGLEWLAHIWWDDVKQYNPALKSRLTISKDTSSSQVFLKSASVDTADTATYYCARIGGDYDYFDFWGQGTTLTVSS VL: DIVLTQSPASLAVSLGQRATISCRASESVEYSGTSLMQWYQQKPGQPPKLLIYVASNVESGVPARFSGSGSGTDFSLNIHPVEEDDIAMYFCQQSRKVPWTFGGGTKLEIK	EC50	0.0171 µg/mL
5886-156H+L (antibody, V domains shown, murine antibody) VH: DVQLQQSGPGLVKPSQSLSLTCTVTGYSITSDYAWNWIRQFPGNKLEWMGYIDYSGSTTYNPSLKSRFSITRDTSKNQFFLQLNSVTTEDTATYYCASTVIDSMDYWGQGTSVTVSS VL: DIVLTQSPASLAVSLGQRATISCRASKSVSTSGHSYMHWYQQKPGQPPKLLIYLASNLESGVPARFSGSGSGTDFTLNINPMEEEDAATYYCQHSREFPFTFGSGTKLEIK	EC50	0.0203 µg/mL

What does the record list as EC50 for 5888-379H1+L2 (antibody, V domains shown, murine antibody) VH: QIQLAQSGPELKKPGETVKISCKASGYTFINYGMNWVKQAPGKDLKWMGWINTYIGEPTYGDNFKGRFAFSLETSASTVYLQINNLKNEDTATYFCAREGDGFAYWGQGTLVTVSA VL: DIVMTQSPPSLSVSVGEKVTMSCKSSQSLLYSGNQNNYLAWYQQKPGQPPKLLIYGASTRESGVPDRFTGSGSGTDFTLTISSVQAEDLAVYYCQNDHSYPYTFGGGTKLEIK ?
0.0602 µg/mL
